Origin of measurements: patent US20200000897A1

Molecular target: T1, HLA-A*03:01 (human)
T1 construct: MHC class I monomer first loaded with a UV-sensitive peptide that is cleaved by UV irradiation and exchanged for the test peptide; captured on streptavidin plates; also called peptide-receptive MHC molecules
Experiment: UV-ligand exchange, anti-b2m ELISA; peptide exchange yield grade (>10% +, >20% ++, >50% +++, >75% ++++)
EXPERIMENTAL_READOUT: peptide exchange yield

Take a look at these entries with their results.
[[record]]
binder = "LLLAAVTVK"
assay_result = "20 to 50%"

[[record]]
binder = "AVAQKLLSH"
assay_result = "> 75%"

[[record]]
binder = "SVEGLSRRLK"
assay_result = "50 to 75%"


What does the data say about its peptide exchange yield? Entry: KTGTFVLYKS
50 to 75%

Now consider IIFVPEMNK .
> 75%

Now the binder HVLYPVPLESY
50 to 75%

Check RVAEEILIK too.
50 to 75%

Next up: VSVAGSILAK
20 to 50%
